system: 253994-281-T-J1-PDC KRAS-mutant spheroids with HUVEC/MSC, viability; assay: Anticancer human tumor 253994-281-T-J1-PDC patient-derived colorectal carcinoma cell line growth inhibition [KRAS2]; details: curve of first compound; second compound 1 µM
Measured metric: IC50

// known answers, use as guide
Molecule | IC50
Cn1nccc1Nc1nccc(-c2cc3c(s2)C(C)(C)N(CCN2CCOCC2)C3=O)n1 + COc1cc2nc(C)nc(NC(C)c3cc(N)cc(C(F)(F)F)c3)c2cc1OC1CCOC1 | 0.753 µM
CC(=O)OC12COC1CC(O)C1(C)C(=O)C(O)C3=C(C)C(OC(=O)C(O)C(NC(=O)OC(C)(C)C)c4ccccc4)CC(O)(C(OC(=O)c4ccccc4)C21)C3(C)C (stereo not given) + CNCc1ccccc1-c1csc(C(C)Nc2nc(C)nc3cc(OC)c(OC)cc23)c1 | 0.0275 µM
CCNC(=O)CC1N=C(c2ccc(Cl)cc2)c2cc(OC)ccc2-n2c(C)nnc21 (stereo not given) + C=CC(=O)N1CCN(c2nc(OCC3CCCN3C)nc3c2CCN(c2cccc4cccc(C)c24)C3)CC1CC#N | > 10 µM
CC1(C)CCC(CN2CCN(c3ccc(C(=O)NS(=O)(=O)c4ccc(NCC5CCOCC5)c([N+](=O)[O-])c4)c(Oc4cnc5[nH]ccc5c4)c3)CC2)=C(c2ccc(Cl)cc2)C1 + C=CC(=O)N1CCN(c2nc(=O)n(-c3c(C)ccnc3C(C)C)c3nc(-c4c(O)cccc4F)c(F)cc23)C(C)C1 | > 10 µM

Here is another molecule to look at.
Consider Cn1nccc1Nc1nccc(-c2cc3c(s2)C(C)(C)N(CCN2CCOCC2)C3=O)n1 + CC1OCC2(CCN(c3cnc(Sc4ccnc(N)c4Cl)c(N)n3)CC2)C1N . Its measured IC50 is 0.28 µM

* * *

tested on: 253994-281-T-J1-PDC KRAS-mutant spheroids with HUVEC/MSC, viability; experiment: Anticancer human tumor 253994-281-T-J1-PDC cell line growth inhibition [KRAS2]; conditions: second compound 1 µM; first compound 0.0316 µM; stronger effect = lower value;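 also: spheroids exposed to agents for seven days before readout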;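 as to viability, T/C: percent of DMSO vehicle control viability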
Measured metric: viability, T/C (%)
API: value field is a number in %; no unit string.

Compound | Measured metric | Unit name | Number
CC1COCCN1c1cc(-c2ccnn2C)c2ccnc(-c3ccn[nH]3)c2n1 (stereo unspecified) + CC1OCC2(CCN(c3cnc(Sc4ccnc(N)c4Cl)c(N)n3)CC2)C1N | viability, T/C | % | 70.4
CCN1CCN(Cc2ccc(Nc3ncc(F)c(-c4cc(F)c5nc(C)n(C(C)C)c5c4)n3)nc2)CC1 + CNCc1ccccc1-c1csc(C(C)Nc2nc(C)nc3cc(OC)c(OC)cc23)c1 | viability, T/C | % | 78.2
COc1cc(Nc2ncc3c(n2)-c2ccc(Cl)cc2C(c2c(F)cccc2OC)=NC3)ccc1C(=O)O + CNCc1ccccc1-c1csc(C(C)Nc2nc(C)nc3cc(OC)c(OC)cc23)c1 | viability, T/C | % | 39.1

Form: compound = CCN1CCN(Cc2ccc(Nc3ncc(F)c(-c4cc(F)c5nc(C)n(C(C)C)c5c4)n3)nc2)CC1 + COc1cc2nc(C)nc(NC(C)c3cc(N)cc(C(F)(F)F)c3)c2cc1OC1CCOC1 ; viability, T/C = 74.7

// viability, T/C value for COc1cc(Nc2ncc3c(n2)-c2ccc(Cl)cc2C(c2c(F)cccc2OC)=NC3)ccc1C(=O)O + C=CC(=O)N1CCN(c2nc(=O)n(-c3c(C)ccnc3C(C)C)c3nc(-c4c(O)cccc4F)c(F)cc23)C(C)C1 : 87.2

The compound listed as CN(C)C/C=C/C(=O)Nc1cc2c(Nc3ccc(F)c(Cl)c3)ncnc2cc1O[C@H]1CCOC1 + C=CC(=O)N1CCN(c2nc(OCC3CCCN3C)nc3c2CCN(c2cccc4cccc(C)c24)C3)CC1CC#N shows viability, T/C equal to 73.1

According to the records, this compound CC(C)n1nc(-c2ccc3oc(N)nc3c2)c2c(N)ncnc21 + CNCc1ccccc1-c1csc(C(C)Nc2nc(C)nc3cc(OC)c(OC)cc23)c1 displays viability, T/C of 73.3

The compound listed as CCN1CCN(Cc2ccc(Nc3ncc(F)c(-c4cc(F)c5nc(C)n(C(C)C)c5c4)n3)nc2)CC1 + C=CC(=O)N1CCN(c2nc(=O)n(-c3c(C)ccnc3C(C)C)c3nc(-c4c(O)cccc4F)c(F)cc23)C(C)C1 has a reported viability, T/C of 89.5

Reported viability, T/C of CC1COCCN1c1cc(-c2ccnn2C)c2ccnc(-c3ccn[nH]3)c2n1 (stereo unspecified) + C=CC(=O)N1CCN(c2nc(=O)n(-c3c(C)ccnc3C(C)C)c3nc(-c4c(O)cccc4F)c(F)cc23)C(C)C1 : 89
